- Tested Target: T1, fVIIa/TF (Homo sapiens, UniProt P08709)
- T1 construct: Recombinant fVIIa was products of Novo-Nordisk (Denmark); purchased Novo-Nordisk (Denmark) for fVIIa; Protgen (Beijing, China) for sTF; Haematologic Technologies Inc for EGR-fXa
- T1 sequence (P08709 61-212 limits assumed): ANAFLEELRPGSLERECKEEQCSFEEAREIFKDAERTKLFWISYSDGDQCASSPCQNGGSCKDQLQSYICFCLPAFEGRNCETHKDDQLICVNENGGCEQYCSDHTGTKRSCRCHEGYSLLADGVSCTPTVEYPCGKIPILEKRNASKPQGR
- T1 sequence (P08709 213-466 limits assumed): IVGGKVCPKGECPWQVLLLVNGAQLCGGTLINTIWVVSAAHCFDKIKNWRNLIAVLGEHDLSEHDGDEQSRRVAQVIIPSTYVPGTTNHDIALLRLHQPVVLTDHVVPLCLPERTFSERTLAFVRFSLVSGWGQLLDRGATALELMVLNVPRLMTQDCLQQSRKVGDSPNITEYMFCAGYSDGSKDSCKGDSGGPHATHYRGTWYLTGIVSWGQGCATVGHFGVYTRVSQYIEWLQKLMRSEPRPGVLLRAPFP
- T1 sequence (P13726 33-251 partner limits assumed): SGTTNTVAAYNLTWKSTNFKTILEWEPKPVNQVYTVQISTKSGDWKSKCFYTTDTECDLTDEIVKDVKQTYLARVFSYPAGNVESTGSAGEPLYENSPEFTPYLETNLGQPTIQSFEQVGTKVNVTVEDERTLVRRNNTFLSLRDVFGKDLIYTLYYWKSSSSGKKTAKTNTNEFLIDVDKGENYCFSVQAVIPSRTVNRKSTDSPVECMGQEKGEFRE
- Experiment Notes: Chromogenic assay, fVIIa/TF
- Assay type: biochemical
- Test Conditions: 200 nM

{"Molecule": "NAPTin-1 (protein, Sequence derived from Ancylostoma caninum or Synthetic) NPSCGENERHDECSRKECDPKCKYDGTEEKDDEKPVVCLTRVCYGDCICRDGFLRNKNGACVKAEDCELD", "effect on fVIIa/TF activity (in words)": "without affecting"}
{"Molecule": "NAPTin-5 (protein, Sequence derived from Ancylostoma caninum or Synthetic) NPSCGENERHDECSRKECDPKCKYDGTEEKDDEKPVVCLTRVCYGDCICRDGFLRNKNGACVKAEDCEL", "effect on fVIIa/TF activity (in words)": "without affecting"}
{"Molecule": "NAPTin-2 (protein, Sequence derived from Ancylostoma caninum or Synthetic) NPSCGENERHDECSRKECDPKCKYDGTEEKDDEKPVVCLTRVCYGDCICRDGFLRNKNGACVKAEDCELDN", "effect on fVIIa/TF activity (in words)": "without affecting"}
